Each entry below lists one item and its recorded ELISA signal value.
Target: T1, murine HVEM (murine, UniProt Q80WM9 39-206, limits assumed); note: test concentration or dose not given here
T1 construct: also called Mouse
T1 sequence (looked up): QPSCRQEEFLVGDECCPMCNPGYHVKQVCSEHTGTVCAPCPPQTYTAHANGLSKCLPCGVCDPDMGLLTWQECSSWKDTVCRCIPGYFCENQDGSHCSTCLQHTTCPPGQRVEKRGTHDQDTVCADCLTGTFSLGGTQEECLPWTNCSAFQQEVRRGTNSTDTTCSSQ
Experiment: ELISA
// return just the number, without any unit appended

Solved cases below.
binder: Ab_015 (H5S14-16A13A) (antibody, V domains shown, also called Ab_15) VH: EVQLVESGGGLVKPGGSLKLSCAASGFTFSDYYMYWVRQTPEKRLEWVATISDGGSYTYYPDSVKGRFTISRDNAKNNLYLQMSSLKSEDTAMYYCARDGNYYAMDYWGQGTSVTVSS VL: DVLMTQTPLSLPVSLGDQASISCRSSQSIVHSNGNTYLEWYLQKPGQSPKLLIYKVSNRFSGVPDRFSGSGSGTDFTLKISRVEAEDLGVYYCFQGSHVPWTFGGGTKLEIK
ELISA signal: 0.042
--
binder: Ab_029 (H5S15-14A14B) (antibody, V domains shown, also called Ab_29) VH: EVQLQQSGPELVKPGASVKMSCKASGYTFTSYVMHWVKQKPGQGLEWIGYINPYNDDTNCNEKFKGKATLTSDKSSSTAYMELSRLTSEDSAVYYCAKARGYGSTFYYSMDYWGQGTSVTVSS VL: DIVMTQSQKFMSTSVGDRVSVTCKASQNVGTNVAWYQQRPGQSPKSLIYSASYRYSGVPDRFTGSGSGTDFTLTISNVQSEDLADYFCQQYNSYPYTFGGGAKLEIK
ELISA signal: 0.045

Prompt: Quick one: ELISA signal for Ab_008 (H5S14-11A10A) (antibody, V domains shown, also called Ab_8) VH: EVKLVESGGGLVKPGGSLRLSCAASGFTFSSFAMSWIRQTPEKGLEWVASITTGGSSYSPDSLKGRFTISRDNVRNIVYLQMSSLRSEDTAMYACARGGGGNYFWFAYWGQGTLVTVSA VL: DVVMTQTPLSLPVSLGDQASISCRSSQSLVHSNGNTYLHWYLQKPGQSPKLLIYKVSNRFSGVPDRFSGSGSGTDFTLKISRVEAEDLGVYFCSQSIHVPFTFGSGTKLEIK ?
Response: 0.077

Prompt: Quick one: ELISA signal for Ab_047 (H5S15-36A32A) (antibody, V domains shown, also called Ab_47) VH: EVQLQQSGAELVKPGASVKLSCTASGFNIKDTYMHWVKQRPEQGLEWIGRIDPANGNTKYDPKFQGKATITADTSSNTAYLQLSSLTSEDTAVYYCARPYGNYGFAYWGQGTLVTVSA VL: DIQMTQSPASLSASVGETVTITCRASGNIHNYLAWYQQKQGKSPQLLVYNAKTLADGVPSRFSGSGSGTQYSLKINSLQPEDFGSYYCQHFWSTFTFGSGTKLEIK ?
Response: 0.051

Prompt: Quick one: ELISA signal for Ab_033 (H5S15-7B8A) (antibody, V domains shown, also called Ab_33) VH: QIQLVQSGPELKKPGETVKISCKASGYTFTNYGMNWVKQAPGKGLKWVGWINTYTGEPTYADDFKGRFAFSLETSASTAYLQINNLKNEDMATYFCARSFYGSEAYWGQGTLVTVSA VL: QIVLTQSPAIMSASLGEEITLTCSASSSVSFMHWYQQKSGTSPKLLIYSTSNLASGVPSRFSGSGSGTFYSLTISSVEAEDAADYYCHQWSSYLWTFGGGAKLEIK ?
Response: 0.043

Prompt: Quick one: ELISA signal for Ab_087 (H5S20-59A43A) (antibody, V domains shown, also called Ab_87) VH: EVKLVESGGGLVKPGGSLKLSCAASGFTFSSYAMSWVRQTPEKRLEWVASISSGSSTYYPDSVKGRFTISRDNARNILYLQMSSLRSEDTAMYYCAKGRGYGNYLYAMDYWGQGTSVTVSS VL: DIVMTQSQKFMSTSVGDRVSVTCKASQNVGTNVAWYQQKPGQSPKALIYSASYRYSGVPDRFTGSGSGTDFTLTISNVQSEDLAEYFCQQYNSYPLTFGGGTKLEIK ?
Response: 0.045

Prompt: Quick one: ELISA signal for Ab_009 (H5S14-8A7A) (antibody, V domains shown, also called Ab_9) VH: EVKLVESGGDLVKPGGSLKLSCAASGFTFSNYAMSWVRQTPEKRLEWVASISTGGTTSYYSDSVKGRFTISRDNARNILYLQMSSLRSEDTAMYYCARGGGGNYFWFTYWGQGTLVTISA VL: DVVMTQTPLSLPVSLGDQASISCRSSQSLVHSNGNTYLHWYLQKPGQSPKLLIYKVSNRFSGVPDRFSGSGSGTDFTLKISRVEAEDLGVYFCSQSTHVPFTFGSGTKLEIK ?
Response: 0.047
